From: ChEMBL document CHEMBL1201862

- Tested on: M19-MEL
- ASSAY_DETAILS: NCI tumour cell line growth inhibition, 48 h
Active and inactive are the calls of the source. No stated cut-off is given here; in the data, active = GI50 up to about 1.1 µM and inactive = higher.
Entry note: the call must match one of true (active), false (inactive)

# COMPOUND, CLASS_LABEL
rows = [
    ("C=CC/C=C/C/C=C/CCCCCCCc1cccc(O)c1C(=O)O", "false"),
    ("OCC1C2C=CC(O2)[C@H]1CO (stereo partly specified)", "false"),
    ("CCCCCn1cnc2c1S(=O)(=O)N(C)C(NC(=O)c1ccccc1)=N2", "false"),
    ("CC(=O)OCC1OC(n2c(=S)n(-c3ccccc3)c(=O)c3cc(Br)ccc32)C(OC(C)=O)C(OC(C)=O)C1OC(C)=O (stereo unspecified)", "false"),
    ("[N-]=[N+]=NC1C2CC3CC(C2)CC1C3 (stereo unspecified)", "false"),
]

*Q* Field: outcome | Entry: O=S(O)c1cc(Cl)cc(Cl)c1O
*A* false

*Q* Now consider CN(C)[C@H]1CC[C@H]2[C@@H]3CCC4C[C@@H](NC(=O)NC(Cc5ccccc5)c5nccs5)CC[C@]4(C)[C@H]3CC[C@]12C (stereo partly specified) .
*A* false

*Q* Repeat for the following compound: O=S1(=O)c2ccccc2N=C(c2ccccc2Cl)CC1c1ccc(F)cc1 (stereo unspecified)
*A* false

*Q* Try COc1cc([C@@H]2c3cc4c(cc3[C@@H](NC(=O)c3cccc([N+](=O)[O-])c3)C3COC(=O)[C@@H]32)OCO4)cc(OC)c1O (stereo partly specified) next.
*A* false

*Q* Continue with CC([C@H]1CCC2C3CCC4CC5(CC[C@]4(C)C3CC[C@@]21C)c1ccccc1C(=O)N5C)N(C)C (stereo partly specified)
*A* false

*Q* Another compound: CN(C)C(=N)NC(N)=S
*A* false

* * *

- System: OVCAR-4
- ASSAY_DETAILS: NCI tumour cell line growth inhibition, 48 h
Active and inactive are the calls of the source. Cut-off read from the data, not from the text of the source: active = GI50 up to about 1.1 µM and inactive = higher.
The categories you may choose from are active, inactive

Use these answered entries as a reference point.
# COMPOUND, CLASS_LABEL
data = [
    ("COC(=O)C12OCC34C(CC5C(C)C6=CC(=O)OC6=CC5(C)C3C(O)C1O)OC(=O)C(O)C24 (stereo not drawn)", "inactive"),
    ("CCN(CC)c1ccc(/C=C/C(=O)c2cc(C(C)(C)C)c(O)c(C(C)(C)C)c2)cc1", "inactive"),
    ("CC(C)C(=O)/C=C/S/C=C/C(=O)C(C)C", "inactive"),
    ("COc1cc(C(C)=O)cc(C(=O)N(C(C)C)C(C)C)c1[Si](C)(C)C", "inactive"),
    ("O=CC(O)C(O)C(O)COc1cc(CO)cc2c1C(=O)c1ccccc1C2=O (stereo not drawn)", "inactive"),
]

*Q* Entry O=C1/C(=C/c2ccc([N+](=O)[O-])cc2)Oc2cc(O)ccc21 : call = ?
*A* inactive

*Q* Another: Cc1cccc(C)c1NC(=O)C(=O)Cc1nc2ccccc2s1
*A* inactive

*Q* Would you kindly repeat that for CSC1CC2C(CC1(C)O)C2(C)C (stereo not drawn) ?
*A* inactive

*Q* Same lookup for CN(C)c1ccc(/C=C(\NC(=O)c2ccccc2)C(=O)NC(CCC(=O)O)C(=O)O)cc1 (stereo not drawn) , please.
*A* inactive

*Q* What would you report for O=C1C2C(C(=O)N1c1ccccc1)C1(c3ccccc3)OC2(c2ccccc2)c2ccccc21 (stereo not drawn) ?
*A* inactive

*Q* # iterate: CC(C)(CN1CCCCC1)C(/C=C/c1ccc(Cl)cc1)=N\NC(=O)N/N=C(/C=C/c1ccc(Cl)cc1)C(C)(C)CN1CCCCC1
*A* inactive

*Q* Ok, now N#C[C@@H](c1nc2ccccc2s1)c1ncccc1[N+](=O)[O-]
*A* inactive

*Q* Next compound up: CC(C)(C)OC/C=C(\Br)CO
*A* inactive

*Q* Same thing, different compound: CN(C)c1ccc(-c2[nH]c(=O)c3ccccc3[n+]2C)cc1
*A* inactive

*Q* Try this compound next: COCn1c2ccc(OC(C)=O)cc2c2c(=O)oc(C)nc21
*A* inactive

*Q* Moving on to Nc1ccc(Sc2c3ccccc3nc3ccccc23)cc1
*A* inactive
